system: NCI-H1993; assay: relative viability (nuclei count vs DMSO), 5 days (fraction); higher = more cells survive; details: first compound 0.0002 µM
measurement_type: relative viability
Hey, just send me the number, nothing else.

Inquiry: Complete the entry with relative viability for CC(=O)O[C@@]12CO[C@@H]1C[C@H](O)[C@@]1(C)C(=O)[C@H](O)C3=C(C)[C@@H](OC(=O)[C@H](O)[C@@H](NC(=O)OC(C)(C)C)c4ccccc4)C[C@@](O)([C@@H](OC(=O)c4ccccc4)[C@H]21)C3(C)C [Docetaxel] + CS(=O)(=O)N1CCN(Cc2cc3nc(-c4cccc5[nH]ncc45)nc(N4CCOCC4)c3s2)CC1 [Pictilisib] (partner 1 µM)
Reply text: 0.746

----------
tested on: HOP-62; experiment: relative viability (nuclei count vs DMSO), 5 days (fraction); higher = more cells survive; details: first compound 4 µM
measurement_type: relative viability
Hey, just send me the number, nothing else.

>>> numeric_readout("Cc1sc2c(c1C)C(c1ccc(Cl)cc1)=N[C@@H](CC(=O)OC(C)(C)C)c1nnc(C)n1-2 [JQ1] + Cc1nc(Nc2ncc(C(=O)Nc3c(C)cccc3Cl)s2)cc(N2CCN(CCO)CC2)n1 [Dasatinib] (partner 0.075 µM)")
0.116
>>> numeric_readout("Cc1sc2c(c1C)C(c1ccc(Cl)cc1)=N[C@@H](CC(=O)OC(C)(C)C)c1nnc(C)n1-2 [JQ1] + O=C(CCCCCCC(=O)Nc1ccccc1)NO [Vorinostat] (partner 1 µM)")
0.0858
>>> numeric_readout("Cc1sc2c(c1C)C(c1ccc(Cl)cc1)=N[C@@H](CC(=O)OC(C)(C)C)c1nnc(C)n1-2 [JQ1] + CC1(C)CCC(c2ccc(Cl)cc2)=C(CN2CCN(c3ccc(C(=O)NS(=O)(=O)c4ccc(N[C@H](CCN5CCOCC5)CSc5ccccc5)c(S(=O)(=O)C(F)(F)F)c4)cc3)CC2)C1 [Navitoclax] (partner 0.5 µM)")
0.0774

Inquiry: Please report the measured relative viability for Cc1sc2c(c1C)C(c1ccc(Cl)cc1)=N[C@@H](CC(=O)OC(C)(C)C)c1nnc(C)n1-2 [JQ1] + O=C(c1cc(Cc2n[nH]c(=O)c3ccccc23)ccc1F)N1CCN(C(=O)C2CC2)CC1 [Olaparib] (partner 8 µM) tested on HOP-62.
Reply text: 0.115

----------
tested on: NCI-H2228; assay: relative viability (nuclei count vs DMSO), 5 days (fraction); higher = more cells survive; conditions: first compound 0.002 µM
measurement_type: relative viability
Hey, just send me the number, nothing else.

Here is how some compounds turned out for relative viability.
>>> numeric_readout("CC(=O)O[C@@]12CO[C@@H]1C[C@H](O)[C@@]1(C)C(=O)[C@H](O)C3=C(C)[C@@H](OC(=O)[C@H](O)[C@@H](NC(=O)OC(C)(C)C)c4ccccc4)C[C@@](O)([C@@H](OC(=O)c4ccccc4)[C@H]21)C3(C)C [Docetaxel] + CS(=O)(=O)N1CCN(Cc2cc3nc(-c4cccc5[nH]ncc45)nc(N4CCOCC4)c3s2)CC1 [Pictilisib] (partner 1 µM)")
0.138
>>> numeric_readout("CC(=O)O[C@@]12CO[C@@H]1C[C@H](O)[C@@]1(C)C(=O)[C@H](O)C3=C(C)[C@@H](OC(=O)[C@H](O)[C@@H](NC(=O)OC(C)(C)C)c4ccccc4)C[C@@](O)([C@@H](OC(=O)c4ccccc4)[C@H]21)C3(C)C [Docetaxel] + CC1(C)CCC(c2ccc(Cl)cc2)=C(CN2CCN(c3ccc(C(=O)NS(=O)(=O)c4ccc(N[C@H](CCN5CCOCC5)CSc5ccccc5)c(S(=O)(=O)C(F)(F)F)c4)cc3)CC2)C1 [Navitoclax] (partner 0.5 µM)")
0.156

Next:
Inquiry: Complete the entry with relative viability for CC(=O)O[C@@]12CO[C@@H]1C[C@H](O)[C@@]1(C)C(=O)[C@H](O)C3=C(C)[C@@H](OC(=O)[C@H](O)[C@@H](NC(=O)OC(C)(C)C)c4ccccc4)C[C@@](O)([C@@H](OC(=O)c4ccccc4)[C@H]21)C3(C)C [Docetaxel] + COc1cc2c(Oc3ccc(NC(=O)C4(C(=O)Nc5ccc(F)cc5)CC4)cc3F)ccnc2cc1OCCCN1CCOCC1 [Foretinib] (partner 0.25 µM)
Reply text: 0.185

----------
test system: NCI-H1648; test: relative viability (nuclei count vs DMSO), 5 days (fraction); higher = more cells survive; conditions: first compound 0.04 µM
measurement_type: relative viability
Hey, just send me the number, nothing else.

>>> numeric_readout("Cc1sc2c(c1C)C(c1ccc(Cl)cc1)=N[C@@H](CC(=O)OC(C)(C)C)c1nnc(C)n1-2 [JQ1] + O=C(CCCCCCC(=O)Nc1ccccc1)NO [Vorinostat] (partner 1 µM)")
0.392
>>> numeric_readout("Cc1sc2c(c1C)C(c1ccc(Cl)cc1)=N[C@@H](CC(=O)OC(C)(C)C)c1nnc(C)n1-2 [JQ1] + Nc1ncn([C@H]2C[C@H](O)[C@@H](CO)O2)c(=O)n1 [Decitabine] (partner 2 µM)")
0.497
>>> numeric_readout("Cc1sc2c(c1C)C(c1ccc(Cl)cc1)=N[C@@H](CC(=O)OC(C)(C)C)c1nnc(C)n1-2 [JQ1] + COc1cccc2cc(-c3nc([C@H]4CC[C@H](C(=O)O)CC4)n4ncnc(N)c34)[nH]c12 [OSI-027] (partner 0.5 µM)")
0.285

Inquiry: Please report the measured relative viability for Cc1sc2c(c1C)C(c1ccc(Cl)cc1)=N[C@@H](CC(=O)OC(C)(C)C)c1nnc(C)n1-2 [JQ1] + Cc1cc(Nc2cc(N3CCN(C)CC3)nc(Sc3ccc(NC(=O)C4CC4)cc3)n2)n[nH]1 [Tozasertib] (partner 0.1 µM) tested on NCI-H1648.
Reply text: 0.495

----------
system: NCI-H2405; experiment: relative viability (nuclei count vs DMSO), 5 days (fraction); higher = more cells survive; settings: first compound 0.002 µM
Parameter relative viability: see the listing below.
Hey, just send me the number, nothing else.

>>> numeric_readout("CC(=O)O[C@@]12CO[C@@H]1C[C@H](O)[C@@]1(C)C(=O)[C@H](O)C3=C(C)[C@@H](OC(=O)[C@H](O)[C@@H](NC(=O)OC(C)(C)C)c4ccccc4)C[C@@](O)([C@@H](OC(=O)c4ccccc4)[C@H]21)C3(C)C [Docetaxel] + CS(=O)(=O)CCNCc1ccc(-c2ccc3ncnc(Nc4ccc(OCc5cccc(F)c5)c(Cl)c4)c3c2)o1 [Lapatinib] (partner 2 µM)")
0.557

Inquiry: Complete the entry with relative viability for CC(=O)O[C@@]12CO[C@@H]1C[C@H](O)[C@@]1(C)C(=O)[C@H](O)C3=C(C)[C@@H](OC(=O)[C@H](O)[C@@H](NC(=O)OC(C)(C)C)c4ccccc4)C[C@@](O)([C@@H](OC(=O)c4ccccc4)[C@H]21)C3(C)C [Docetaxel] + Cc1nc(NC(=O)N2CCC[C@H]2C(N)=O)sc1-c1ccnc(C(C)(C)C(F)(F)F)c1 [Alpelisib] (partner 2 µM)
Reply text: 0.467

Inquiry: Complete the entry with relative viability for CC(=O)O[C@@]12CO[C@@H]1C[C@H](O)[C@@]1(C)C(=O)[C@H](O)C3=C(C)[C@@H](OC(=O)[C@H](O)[C@@H](NC(=O)OC(C)(C)C)c4ccccc4)C[C@@](O)([C@@H](OC(=O)c4ccccc4)[C@H]21)C3(C)C [Docetaxel] + CC(C)C[C@H](NC(=O)[C@H](Cc1ccccc1)NC(=O)c1cnccn1)B(O)O [Bortezomib] (partner 0.002 µM)
Reply text: 0.681

----------
Parameter relative viability: see the listing below.
tested on: NCI-H2347; experiment: relative viability (nuclei count vs DMSO), 5 days (fraction); higher = more cells survive; conditions: first compound 15.81 µM
Hey, just send me the number, nothing else.

Here is how some compounds turned out for relative viability.
>>> numeric_readout("O=C(O)CCCCC(CCSCc1ccccc1)SCc1ccccc1 (centres undefined) [CPI-613] + Nc1nc2[nH]cc(CCc3ccc(C(=O)N[C@@H](CCC(=O)O)C(=O)O)cc3)c2c(=O)[nH]1 [Pemetrexed] (partner 0.2 µM)")
0.434
>>> numeric_readout("O=C(O)CCCCC(CCSCc1ccccc1)SCc1ccccc1 (centres undefined) [CPI-613] + NC(=O)Nc1cc(-c2cccc(F)c2)sc1C(=O)N[C@H]1CCCNC1 [AZD7762] (partner 0.2 µM)")
0.787
>>> numeric_readout("O=C(O)CCCCC(CCSCc1ccccc1)SCc1ccccc1 (centres undefined) [CPI-613] + Cc1cc(Nc2cc(N3CCN(C)CC3)nc(Sc3ccc(NC(=O)C4CC4)cc3)n2)n[nH]1 [Tozasertib] (partner 0.1 µM)")
0.561

Inquiry: Complete the entry with relative viability for O=C(O)CCCCC(CCSCc1ccccc1)SCc1ccccc1 (centres undefined) [CPI-613] + Cc1nc(NC(=O)N2CCC[C@H]2C(N)=O)sc1-c1ccnc(C(C)(C)C(F)(F)F)c1 [Alpelisib] (partner 2 µM)
Reply text: 0.963

These measurements were taken from the supplement of paper PMC10307832.
